Give IC50 for every item shown.
- ASSAY SYSTEM: RORγ ligand binding domain (LBD) (Homo sapiens)
- Construct: made in house; host or cells: E. coli BL-21 (BL3), vector pDEST15
- Sequence (P51449 269-508 limits assumed): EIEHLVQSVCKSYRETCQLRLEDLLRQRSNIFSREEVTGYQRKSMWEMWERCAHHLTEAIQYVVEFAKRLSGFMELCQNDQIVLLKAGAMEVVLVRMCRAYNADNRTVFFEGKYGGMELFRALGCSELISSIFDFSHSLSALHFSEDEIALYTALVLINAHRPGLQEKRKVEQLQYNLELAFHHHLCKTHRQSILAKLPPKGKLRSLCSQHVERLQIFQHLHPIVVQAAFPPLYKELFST
- METHOD: TR-FRET Activity Assay (ligand sensing, RORγ-LBD / coactivator peptide interaction, LANCE)
- Format: biochemical
Kindly answer with a numeric value in nM, unit omitted.

Lookup: So what's the measured IC50 for this one? Cc1c(C(=O)NC2CCOCC2)cc(-c2ccc(S(=O)(=O)NC(C)(C)C)c(C(F)(F)F)c2)n1CC1CCCC(C(F)(F)F)C1 (centres unmarked)
Found: 501

Lookup: So what's the measured IC50 for this one? "Cc1c(C(=O)NCCN2CCOCC2)cc(-c2cc(C(C)(C)C)cc(C3(C)CC3)c2)n1CC1CCCCC1"
Found: 398

Lookup: So what's the measured IC50 for this one? "Cc1c(C(=O)NCC(=O)N(C)C)cc(-c2cc(C(C)(C)C)cc(C(C)(C)C)c2)n1CC1CCCCC1"
Found: 631

Lookup: So what's the measured IC50 for this one? "COCC(C)(C)NS(=O)(=O)c1ccc(-c2cc(C(=O)NC3CCOCC3)c(C)n2CC2CCCCC2)cc1C(F)(F)F"
Found: 631

Lookup: So what's the measured IC50 for this one? "COCC(=O)NC(C)(C)CNC(=O)c1cc(-c2cc(C(C)(C)C)c3c(c2)C2(CCO3)CC2)n(CC2CCCCC2)c1C"
Found: 794

Lookup: So what's the measured IC50 for this one? "Cc1c(C(=O)N(C)CC2(O)CCOCC2)cc(-c2cc(C(C)(C)C)c3c(c2)C2(CCO3)CC2)n1CC1CCCCC1"
Found: 398

Lookup: So what's the measured IC50 for this one? "Cc1c(C(=O)NCC2(S(C)(=O)=O)CCOCC2)cc(-c2cc(C(C)(C)C)c3c(c2)C2(CCO3)CC2)n1CC1CCCCC1"
Found: 200

Lookup: So what's the measured IC50 for this one? "Cc1c(C(=O)NC2COC2)cc(-c2cc(C(C)(C)C)cc(C(C)(C)C)c2)n1S(=O)(=O)N(C)C1CCCCC1"
Found: 316

Lookup: So what's the measured IC50 for this one? Cc1c(C(=O)NCC(C)(C)NC(=O)C(C)O)cc(-c2cc(C(C)(C)C)c3c(c2)C2(CCO3)CC2)n1CC1CCCCC1 (centres unmarked)
Found: 3160

Lookup: So what's the measured IC50 for this one? "Cc1c(C(=O)N(C)CC2(CO)COC2)cc(-c2cc(C(C)(C)C)cc(C3(C)CC3)c2)n1CC1CCCCC1"
Found: 501

Lookup: So what's the measured IC50 for this one? "Cc1cc(S(=O)(=O)NC(C)(C)C)c(C(F)(F)F)cc1-c1cc(C(=O)NC2CCOCC2)c(C)n1CC1CCCCC1"
Found: 1580

Lookup: So what's the measured IC50 for this one? "Cc1c(C(=O)NCC(C)(C)NC(=O)CCO)cc(-c2cc(C(C)(C)C)c3c(c2)C2(CCO3)CC2)n1CC1CCCCC1"
Found: 1000

Lookup: So what's the measured IC50 for this one? "COCCS(=O)(=O)NC(C)(C)CNC(=O)c1cc(-c2cc(C(C)(C)C)c3c(c2)C2(CCO3)CC2)n(CC2CCCCC2)c1C"
Found: 200

Lookup: So what's the measured IC50 for this one? "Cc1c(C(=O)NCCN(C)C)cc(-c2cc(C(C)(C)C)cc(C(C)(C)C)c2)n1CC1CCCCC1"
Found: 3160
